measured_on: Human TRPC6 (Homo sapiens, UniProt Q9Y210)
Construct: expressed in transfected cells
assay_method_text: Evaluation of TRPC6 channel inhibitory activity (1), FLIPR Calcium 5 Assay Kit, OAG stimulation (Compound Nos. 1-1293)
Type: cell-based
assay_context: Human TRPC6 stably-expressing cells, OAG 30 μM, FLIPR Calcium 5 Assay Kit; read-out: Inhibitory activity (pIC50 class) (converted)
Experimental: Evaluation of TRPC6 Channel Inhibitory Activity (1) (Compound Nos. 1-1293) In order to investigate TRPC6 channel inhibitory activity of the compounds, evaluation was conducted using FLIPR® Calcium 5 Assay Kit (Molecular Devices) in accordance with the following procedure. […] A volume of 12.5 μL of a compound solution was added into each well while the fluorescence was measured with FLIPR tetra. […]
IC50 values for the compounds below.
assay_readout: IC50

[[record]]
compound = "N#Cc1ccc(-c2ncc(CN)cn2)c(Sc2nnc(N3CCCCC3)s2)c1 [compound 1269]"
measured_on = "Human TRPC6 (Homo sapiens, UniProt Q9Y210)"
result = "> 1000 nM"

[[record]]
compound = "CCCN(CCC)c1cc(Oc2cc(C#N)ccc2-c2ncc(CCN)cn2)n(C)n1 [compound 759]"
measured_on = "Human TRPC6 (Homo sapiens, UniProt Q9Y210)"
result = "< 10 nM"

[[record]]
compound = "Cc1nc(NC(C)(C)C)cc(Oc2cc(C#N)ccc2-c2ncc(CN)cn2)n1 [compound 637]"
measured_on = "Human TRPC6 (Homo sapiens, UniProt Q9Y210)"
result = "< 10 nM"

[[record]]
compound = "N#Cc1ccc(-c2ccc(CCN)cc2)c(C(=O)c2cnc(N3CCOCC3)o2)c1 [compound 1081]"
measured_on = "Human TRPC6 (Homo sapiens, UniProt Q9Y210)"
result = "10 to 1000 nM"

[[record]]
compound = "Cc1nc(Oc2cc(C#N)ccc2-c2ccc(C3CNC3)cc2)cc(N2CCOCC2)n1 [Compound 52]"
measured_on = "Human TRPC6 (Homo sapiens, UniProt Q9Y210)"
result = "10 to 1000 nM"

[[record]]
compound = "N#Cc1ccc(-c2ncc(CCN)cn2)c(C(=O)c2cnn(C3CCOCC3)c2)c1 [compound 1041]"
measured_on = "Human TRPC6 (Homo sapiens, UniProt Q9Y210)"
result = "10 to 1000 nM"

[[record]]
compound = "Cc1nc(OCC2CC2(F)F)cc(Oc2cc(C#N)ccc2-c2ncc(CN)cn2)n1 (stereo not drawn) [compound 847]"
measured_on = "Human TRPC6 (Homo sapiens, UniProt Q9Y210)"
result = "> 1000 nM"

[[record]]
compound = "Cc1ccc(-c2cc(Oc3cc(C#N)ccc3-c3ccc(CCN)cc3)n(C)n2)nc1 [Compound 164]"
measured_on = "Human TRPC6 (Homo sapiens, UniProt Q9Y210)"
result = "< 10 nM"

[[record]]
compound = "Cc1nc(Oc2cc(C#N)ccc2-c2ncc(C(O)CN)s2)cc(-c2ccccc2)n1 (stereo not drawn) [Compound 224]"
measured_on = "Human TRPC6 (Homo sapiens, UniProt Q9Y210)"
result = "10 to 1000 nM"


====

IC50 values for the compounds below.
measured_on: Human TRPC6 (Homo sapiens)
Construct: expressed in transfected cells
Sequence (Q9Y210 1-931): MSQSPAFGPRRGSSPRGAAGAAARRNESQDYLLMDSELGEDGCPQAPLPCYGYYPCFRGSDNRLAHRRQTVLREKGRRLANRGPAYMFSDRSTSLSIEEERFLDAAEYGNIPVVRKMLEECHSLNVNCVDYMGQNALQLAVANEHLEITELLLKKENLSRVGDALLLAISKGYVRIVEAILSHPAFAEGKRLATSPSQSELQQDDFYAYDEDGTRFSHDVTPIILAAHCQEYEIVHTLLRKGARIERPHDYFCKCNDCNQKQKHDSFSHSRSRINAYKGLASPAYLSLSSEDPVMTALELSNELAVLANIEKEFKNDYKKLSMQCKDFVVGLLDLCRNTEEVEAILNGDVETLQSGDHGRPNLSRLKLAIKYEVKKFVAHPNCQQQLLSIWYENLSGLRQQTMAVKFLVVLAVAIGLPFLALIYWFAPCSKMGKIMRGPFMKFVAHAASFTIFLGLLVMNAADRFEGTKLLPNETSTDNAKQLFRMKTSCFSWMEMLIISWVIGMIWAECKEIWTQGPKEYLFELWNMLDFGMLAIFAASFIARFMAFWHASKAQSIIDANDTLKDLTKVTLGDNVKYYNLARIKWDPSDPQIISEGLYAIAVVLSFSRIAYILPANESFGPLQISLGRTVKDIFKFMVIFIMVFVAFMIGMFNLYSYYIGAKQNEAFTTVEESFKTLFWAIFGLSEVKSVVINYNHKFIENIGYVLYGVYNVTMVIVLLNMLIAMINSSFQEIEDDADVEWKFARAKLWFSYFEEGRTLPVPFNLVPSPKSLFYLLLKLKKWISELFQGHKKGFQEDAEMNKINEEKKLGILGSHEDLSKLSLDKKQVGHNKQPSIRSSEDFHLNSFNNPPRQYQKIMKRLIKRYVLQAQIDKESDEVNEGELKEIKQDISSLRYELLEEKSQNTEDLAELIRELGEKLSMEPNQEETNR
assay_method_text: Evaluation of TRPC6 channel inhibitory activity (1), FLIPR Calcium 5 Assay Kit, OAG stimulation (Compound Nos. 1-1293)
Type: cell-based
assay_context: Human TRPC6 stably-expressing cells, OAG 30 μM, FLIPR Calcium 5 Assay Kit; read-out: Inhibitory activity (pIC50 class) (converted)
assay_readout: IC50

[[record]]
compound = "CCOC(CN)c1ccc(-c2ccc(C#N)cc2Oc2cc(N3CCOCC3)nc(C)n2)cc1 (stereo not shown) [Compound 100]"
assay_readout = "IC50"
result = "< 10 nM"

[[record]]
compound = "Cc1nc(Oc2cc(C#N)ccc2-n2cc([C@@H](O)CN)cn2)cc(N2CCC(F)(F)C2)n1 [Compound 252]"
assay_readout = "IC50"
result = "> 1000 nM"

[[record]]
compound = "Cn1nc(C2CCC2)cc1Oc1cc(C#N)ccc1-c1ccc(C(O)CN)cn1 (stereo not shown) [Compound 276]"
assay_readout = "IC50"
result = "< 10 nM"

[[record]]
compound = "Cn1nc(C2CC2)cc1Oc1cc(C#N)ccc1-c1ccc(CCNCC#N)cn1 [Compound 286]"
assay_readout = "IC50"
result = "10 to 1000 nM"

[[record]]
compound = "Cn1nc(-c2cccnc2)cc1Oc1cc(C#N)ccc1-c1ccc(C(O)CN)cc1 (stereo not shown) [Compound 177]"
assay_readout = "IC50"
result = "< 10 nM"

[[record]]
compound = "Cn1nc(N2CCCC2)cc1Oc1cc(C#N)ccc1-c1ccc(CC2(N)COC2)cn1 [compound 741]"
assay_readout = "IC50"
result = "10 to 1000 nM"

[[record]]
compound = "CCN(C)c1cc(Oc2cc(C#N)ccc2-c2ncc(CCN)cn2)nc(C)n1 [compound 854]"
assay_readout = "IC50"
result = "< 10 nM"

